This collection of values is drawn from patent US20250163104A1.

biological target: human PD-1 / PD-L1-Ig binding on Jurkat cell line over-expressing human PD-1 (Jurkat-PD-1) (Homo sapiens, UniProt Q15116); construct: expressed in transfected cells; host or cells: Jurkat; test: Jurkat-PD-1 Cell Binding High-Content Screening Assay (CBA); type: cell-based; conditions: Jurkat HPD1_PDL1 IC50, Jurkat-PD-1 cells, PE-labeled PD-L1-Ig 20 nM final
Sequence (Q15116 25-288): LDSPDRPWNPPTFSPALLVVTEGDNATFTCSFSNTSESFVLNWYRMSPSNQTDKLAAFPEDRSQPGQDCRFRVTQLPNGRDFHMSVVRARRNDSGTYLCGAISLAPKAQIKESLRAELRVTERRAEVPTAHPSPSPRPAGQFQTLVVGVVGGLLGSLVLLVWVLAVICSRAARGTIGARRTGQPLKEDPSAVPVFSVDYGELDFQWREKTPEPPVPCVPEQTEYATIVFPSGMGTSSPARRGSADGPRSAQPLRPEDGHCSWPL
Where a SMILES comes first, the peptide text is derived from it. Bridges are numbered along the chain shown (N, C = ends). [ ]: non-standard residue; d: D form. The star is where a group is joined. Bip = N[C@@H](Cc1ccc(-c2ccccc2)cc1)C(=O)O; Carboxymethyl = O=C(O)C*; Dab = NCC[C@H](N)C(=O)O; Dap = NC[C@H](N)C(=O)O
readout.kind: IC50 (nM)
Give bare numbers, in nM.

CC(C)C[C@@H]1NC(=O)[C@H](Cc2c[nH]c3ccccc23)NC(=O)[C@H](CC(=O)O)NC(=O)[C@H](Cc2ccc(OCC(=O)O)cc2)NC(=O)[C@H](CN)NC(=O)CSC[C@@H](C(=O)NCC(N)=O)NC(=O)[C@H](CO)NC(=O)[C@H](C(C)C)NC(=O)[C@H](CC(C)C)NC(=O)[C@H](CC(N)=O)NC(=O)[C@@H](CC(C)C)NC(=O)[C@H](CCN)NC(=O)[C@H](C(C)C)NC(=O)[C@H](Cc2ccc(-c3ccccc3)cc2)NC1=O [Compound 1280] ({CH2CO}-[Dap]Y(Carboxymethyl)DWL[Bip]V[Dab][dL]NLVSCG-NH2; thioether N-14)    9.7

Please turn your attention to the following entry.
Requested read-out: IC50. Entry: "CC(C)C[C@H]1NC(=O)[C@H](CCCN)NC(=O)[C@H](CCCCN)NC(=O)[C@H](Cc2ccc(-c3ccccc3)cc2)NC(=O)[C@H](C(C)C)NC(=O)[C@H](Cc2c[nH]c3ccccc23)NC(=O)[C@H](CC(=O)O)NC(=O)[C@H](Cc2ccc(OCC(=O)O)cc2)NC(=O)[C@H](Cc2ccncc2)NC(=O)CSC[C@@H](C(=O)N[C@@H](C)C(N)=O)NC(=O)[C@H]([C@@H](C)O)NC(=O)[C@H](C(C)C)NC(=O)[C@H](CC2CCCCC2)NC(=O)[C@H](CCN)NC1=O" 11.1

---

target: human PD-1 / PD-L1-Ig binding on Jurkat cell line over-expressing human PD-1 (Jurkat-PD-1) (Homo sapiens, UniProt Q15116); construct: expressed in transfected cells; host or cells: Jurkat; assay: Jurkat-PD-1 Cell Binding High-Content Screening Assay (CBA); type: cell-based; settings: Jurkat-PD-1 cells, PE-labeled PD-L1-Ig 20 nM final; read-out: Jurkat HPD1_PDL1 IC50
readout.kind: IC50 (nM)
One number for each entry, in nM.

Using the record for CC(C)C[C@H]1NC(=O)[C@H](CCCN)NC(=O)[C@H](CCCNC(N)=O)NC(=O)[C@H](Cc2ccc(-c3ccccc3)cc2)NC(=O)[C@H](C(C)C)NC(=O)[C@H](Cc2c[nH]c3ccccc23)NC(=O)[C@H](CC(=O)O)NC(=O)[C@H](Cc2ccc(C(=O)c3ccccc3)cc2)NC(=O)[C@H](CN)NC(=O)CSC[C@@H](C(=O)N[C@@H](C)C(N)=O)NC(=O)[C@H]([C@@H](C)O)NC(=O)[C@H](C(C)C)NC(=O)[C@H](CC2CCCCC2)NC(=O)[C@H](CCN)NC1=O [Compound 2132] , report its IC50. 65.2
